# MEASURED_TARGET: Neu5Ac(a2-8)Neu5Ac(a2-3)Gal(b1-4)Glc
# ASSAY_DETAILS: glycan array binding signal (z-score within array); higher = stronger binding
# EXPERIMENTAL_CONDITIONS: glycan notation: IUPAC condensed, linker removed
Many of the other results were omitted from the sample, so the strongest signals are more common in it than they were.
For each record, write down the corresponding glycan array binding signal (z-score).
One number for each entry.

[
  {
    "BINDER": "Mnn9-2N3 (Aspergillus fumigatus) (protein) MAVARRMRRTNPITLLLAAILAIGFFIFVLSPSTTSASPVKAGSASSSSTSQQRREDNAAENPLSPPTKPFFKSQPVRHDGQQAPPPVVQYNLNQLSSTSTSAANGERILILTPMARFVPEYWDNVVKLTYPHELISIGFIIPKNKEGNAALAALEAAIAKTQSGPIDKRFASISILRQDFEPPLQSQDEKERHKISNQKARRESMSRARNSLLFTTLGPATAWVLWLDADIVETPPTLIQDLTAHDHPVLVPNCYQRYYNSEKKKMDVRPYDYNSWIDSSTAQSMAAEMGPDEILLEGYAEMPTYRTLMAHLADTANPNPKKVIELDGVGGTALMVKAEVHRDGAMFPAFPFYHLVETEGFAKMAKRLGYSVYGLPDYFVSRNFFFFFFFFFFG",
    "OBSERVED_PROPERTY": "glycan array binding signal (z-score)",
    "DATA_VALUE": 2.12
  },
  {
    "BINDER": "Aap lectin (Staphylococcus epidermidis) (protein) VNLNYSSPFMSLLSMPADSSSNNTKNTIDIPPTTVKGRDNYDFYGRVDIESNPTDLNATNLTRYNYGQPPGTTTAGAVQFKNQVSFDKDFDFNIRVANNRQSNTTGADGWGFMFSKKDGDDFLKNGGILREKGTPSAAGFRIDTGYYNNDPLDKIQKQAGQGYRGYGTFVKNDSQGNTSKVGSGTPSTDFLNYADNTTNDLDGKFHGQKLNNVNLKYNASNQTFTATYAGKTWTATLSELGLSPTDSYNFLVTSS",
    "OBSERVED_PROPERTY": "glycan array binding signal (z-score)",
    "DATA_VALUE": -0.83
  },
  {
    "BINDER": "Epa6 (Candida glabrata), Q6DTM7_CANGB (protein) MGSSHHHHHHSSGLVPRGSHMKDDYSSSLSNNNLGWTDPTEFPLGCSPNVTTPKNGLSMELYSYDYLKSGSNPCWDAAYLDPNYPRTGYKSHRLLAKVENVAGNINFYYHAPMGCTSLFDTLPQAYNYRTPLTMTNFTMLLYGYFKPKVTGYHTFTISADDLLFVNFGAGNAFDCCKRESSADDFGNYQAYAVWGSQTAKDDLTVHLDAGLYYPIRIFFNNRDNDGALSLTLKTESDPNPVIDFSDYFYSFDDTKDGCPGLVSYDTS",
    "OBSERVED_PROPERTY": "glycan array binding signal (z-score)",
    "DATA_VALUE": -0.347
  },
  {
    "BINDER": "PfulAvr4 (Pseudocercospora fuligena) (protein) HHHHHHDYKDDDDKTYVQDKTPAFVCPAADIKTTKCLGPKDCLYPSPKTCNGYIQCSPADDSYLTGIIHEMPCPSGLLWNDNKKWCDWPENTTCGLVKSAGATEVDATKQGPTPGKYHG",
    "OBSERVED_PROPERTY": "glycan array binding signal (z-score)",
    "DATA_VALUE": -0.074
  },
  {
    "BINDER": "Pwp1 (Candida glabrata) (protein) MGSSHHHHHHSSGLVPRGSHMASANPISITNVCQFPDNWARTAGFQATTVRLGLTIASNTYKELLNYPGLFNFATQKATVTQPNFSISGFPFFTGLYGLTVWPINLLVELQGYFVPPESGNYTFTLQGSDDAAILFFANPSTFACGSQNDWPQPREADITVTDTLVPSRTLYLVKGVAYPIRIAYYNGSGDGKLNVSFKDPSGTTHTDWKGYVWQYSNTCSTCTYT",
    "OBSERVED_PROPERTY": "glycan array binding signal (z-score)",
    "DATA_VALUE": 0.642
  },
  {
    "BINDER": "X56-1 (Clostridium perfringens), P26831 (protein) MGSSHHHHHHSSGLVPRGSHMASDPNRIIATYISNRQDAPTGNPDNIFDNNASTELVYKNPNRIDVGTYVGVKYSNPITLNNVEFLMGANSNPNDTMQKAKIQYTVDGREWIDLEEGVEYTMPGAIKVENLDLKVRGVRLIATEARENTWLGVRDINVNKKEDSNSGVEF",
    "OBSERVED_PROPERTY": "glycan array binding signal (z-score)",
    "DATA_VALUE": 0.954
  }
]

Quick request: glycan array binding signal (z-score) for each listed item, please.
1. SfaEH (Escherichia coli), Q1RDG5 (protein) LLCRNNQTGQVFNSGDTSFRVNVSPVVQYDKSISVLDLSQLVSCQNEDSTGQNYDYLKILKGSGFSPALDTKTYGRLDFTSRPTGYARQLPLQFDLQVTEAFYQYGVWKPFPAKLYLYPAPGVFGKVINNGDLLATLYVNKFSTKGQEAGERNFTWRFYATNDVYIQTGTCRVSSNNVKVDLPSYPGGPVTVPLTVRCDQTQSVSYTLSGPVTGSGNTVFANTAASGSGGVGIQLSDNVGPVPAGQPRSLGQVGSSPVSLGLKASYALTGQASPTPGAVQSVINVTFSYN
2. TES70 (Toxocara canis), Q9XYV5 (protein) MISVVLVAIALQISGSYAGACNSINDCGLFETCVNNMCVPDNMGCPMPCQAGQVCVPPNCVAAPAPQPVTTTTAAATTTTSARGRCNANAQCGAFEVCVNGMCQPNNAGCNPPCAANQVCVAPNCVPAPIPPPAQSTTTAPATTRAPPSCPPSWSPFSGHCYYVAVGSFLFNQASDWCTQTNSRPVWFDQSNVGTFGAELYFINVLAASRGVQTYWLGLNRQFGQWVWTNGSPLIFSNWRGSEPDGCCGGNVTCALVNYANPFGQWDDAGCGNIWRNPQGFICKKPLA
3. PEB4 (Campylobacter jejuni), A1VYV6 (protein) MKKFSLVAAALIAGVALNVNAATVATVNGKSISDAEVSEFFAPMLRGQDFKTLPDNQKKALIQQYIMQDLILQDAKKQNLEKDPLYTKELDRAKDAILVNVYQEKILNTIKIDAAKVKAFYDQNKDKYVKPARVQAKHILVATEKEAKDIINELKGLKGKELDAKFSELAKEKSIDPGSKNQGGELGWFDQSTMVKPFTDAAFALKNGTITTTPVKTNFGYHVILKENSQAKGQIKFDEVKQGIENGLKFEEFKKVINQKGQDLLNSAKVEYK
4. Protein L(B1-B4) (Finegoldia magna), Q51912 (protein) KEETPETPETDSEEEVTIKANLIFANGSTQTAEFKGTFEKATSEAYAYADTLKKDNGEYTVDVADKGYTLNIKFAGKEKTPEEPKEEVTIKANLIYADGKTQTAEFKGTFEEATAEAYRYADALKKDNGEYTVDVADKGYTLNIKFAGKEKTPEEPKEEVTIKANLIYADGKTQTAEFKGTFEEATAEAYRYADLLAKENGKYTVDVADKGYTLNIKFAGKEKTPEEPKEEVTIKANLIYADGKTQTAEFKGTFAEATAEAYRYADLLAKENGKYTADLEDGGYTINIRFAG

0.69
-0.14
-0.705
-1.15

Source listed as the supplement of paper PMC8728848.
